Biological target: CK1ε (Homo sapiens, UniProt P49674)
Sequence (P49674 whole entry): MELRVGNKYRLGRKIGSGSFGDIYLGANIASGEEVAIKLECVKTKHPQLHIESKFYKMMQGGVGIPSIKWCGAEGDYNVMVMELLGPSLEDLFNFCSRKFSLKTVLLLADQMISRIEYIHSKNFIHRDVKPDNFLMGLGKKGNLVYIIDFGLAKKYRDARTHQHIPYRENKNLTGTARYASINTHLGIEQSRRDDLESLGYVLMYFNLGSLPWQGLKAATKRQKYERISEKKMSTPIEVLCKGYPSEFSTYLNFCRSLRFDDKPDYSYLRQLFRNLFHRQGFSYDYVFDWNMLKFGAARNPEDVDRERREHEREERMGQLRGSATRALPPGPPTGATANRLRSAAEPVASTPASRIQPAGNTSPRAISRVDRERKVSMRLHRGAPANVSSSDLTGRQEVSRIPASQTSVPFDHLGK
Experiment: CK1ε kinase activity assay (Caliper, FAM-labelled polypeptide)
Assay type: biochemical
Experimental: The in-vitro assay of inhibitory activity of the compound herein against CK1ε kinase was: (1) preparation of 1× kinase basic buffer and stop buffer: • 1×kinase basic buffer: 50 mM HEPES, pH 7.5; and 0.0015% Brij-35; • stop buffer: 100 mM HEPES, pH 7.5; 0.015% Brij-35; 0.2% Coating Reagent #3; and 50 mM EDTA. […]
Each entry below carries its recorded pIC50.
Please note pIC50 is a logarithmic value: minus log10 of concentration in mol/L. Answer with that number alone.

Sample answers from the record:
> print(dat)
                                   compound  test.readout  observed.result
1  COc1ccc(-c2nn([C@@H](C)c3nc4cccc(Cl)c4c(=O)n3-c3cccnc3)c3ncnc(N)c23)c(F)c1F         pIC50             6.69
2  COc1ccc(-c2nn(C(C)c3nc4cccc(Cl)c4c(=O)n3-c3ccccc3)c3ncnc(N)c23)cc1F (stereo not shown) [Compound C, reference compound]         pIC50             6.15
3  COc1cc(F)c(-c2nn(C(C)c3nc4ccccc4c(=O)n3-c3ccccc3)c3ncnc(N)c23)c(F)c1 (stereo not shown)         pIC50             6.69

Qu. Write down pIC50 measured for item COc1ccc(-c2nn(C(C)c3nc4cccc(Cl)c4c(=O)n3N3CCCCC3)c3ncnc(N)c23)c(F)c1F (stereo not shown)
Ans. 6.52

----------
target: UniProt:P49674; assay: CK1ε kinase activity assay (Caliper, FAM-labelled polypeptide); format: biochemical
Each entry below carries its recorded log10 of IC50.
The base-10 logarithm of IC50, taken with IC50 in nM, is what appears here.

Sample answers from the record:
molecule	log10 of IC50
CCOc1ccc(-c2nn(C(C)c3nc4ccccc4c(=O)n3-c3ccccc3)c3ncnc(N)c23)c(F)c1F (stereo not shown) [II-A-3]	2.37
COc1ccc(-c2nn(C(C)c3nc4ccccc4c(=O)n3-c3ccccc3)c3ncnc(N)c23)c(F)c1Cl (stereo not shown) [II-A-5]	2.59
CC(C)Oc1ccc(-c2nn(C(C)c3nc4ccccc4c(=O)n3-c3ccccc3)c3ncnc(N)c23)cc1F (stereo not shown) [Compound A, reference compound]	3.24

# context switch: different molecule, same log10 of IC50
Qu. Write down log10 of IC50 measured for item COc1ccc(-c2nn([C@H](C)c3nc4ccccc4c(=O)n3-c3ccccc3)c3ncnc(N)c23)c(F)c1F [II-A-1b]
Ans. 2.68

----------
target: UniProt:P49674; assay: CK1ε kinase activity assay (Caliper, FAM-labelled polypeptide); type: biochemical
test readout: IC50 (µM)
Report the value in µM with no unit label.

compound	unit of measurement	IC50
CC(C)Oc1ccc(-c2nn([C@@H](C)c3nc4ccccc4c(=O)n3-c3ccccc3)c3ncnc(N)c23)c(F)c1F [II-A-2a]	µM	0.088
COc1ccc(-c2nn(C(C)c3nc4ccccc4c(=O)n3-c3ccccc3)c3ncnc(N)c23)c(F)c1F (stereo not shown) [II-A-1]	µM	0.164
COc1ccc(-c2nn(C(C)c3nc4cccc(Cl)c4c(=O)n3-c3cccnc3)c3ncnc(N)c23)c(F)c1F (stereo not shown) [II-B-2]	µM	0.372

Qu. Write down IC50 measured for item CC(c1nc2ccccc2c(=O)n1-c1ccccc1)n1nc(-c2ccc(OC3CC3)c(F)c2)c2c(N)ncnc21 (stereo not shown) [Compound B, reference compound]
Ans. 2.71

----------
test: Bioavailability study in rats; format: in vivo, SD rats; settings: Sprague-Dawley, plasma; rat, PO 10 mg/kg
test readout: Tmax
# do not omit the unit; it follows the number

> print(dat)
                                   molecule  test.readout  observed.result
1  COc1ccc(-c2nn([C@@H](C)c3nc4cccc(Cl)c4c(=O)n3-c3ccccc3)c3ncnc(N)c23)c(F)c1F [II-A-7a]          Tmax              6 h

Qu. Write down Tmax measured for item COc1ccc(-c2nn([C@@H](C)c3nc4cccc(Cl)c4c(=O)n3-c3ccccc3)c3ncnc(N)c23)c(F)c1F.O=S(=O)(O)O [II-D-6]
Ans. 1.67 h

----------
experiment: Bioavailability study in rats; assay type: in vivo, SD rats; conditions: Sprague-Dawley, plasma; rat, IV 1 mg/kg
test readout: AUC(0-t) (ng·h/mL)
Report the value in ng·h/mL with no unit label.

Qu. Write down AUC(0-t) measured for item COc1ccc(-c2nn([C@@H](C)c3nc4cccc(Cl)c4c(=O)n3-c3ccccc3)c3ncnc(N)c23)c(F)c1F
Ans. 7200

----------
experiment: Bioavailability study in rats; format: in vivo, SD rats; details: Sprague-Dawley, plasma; rat, PO 10 mg/kg
test readout: AUC(0-t) (ng·h/mL)
Report the value in ng·h/mL with no unit label.

> print(dat)
                           molecular.string  test.readout  observed.result
1  COc1ccc(-c2nn([C@@H](C)c3nc4cccc(Cl)c4c(=O)n3-c3ccccc3)c3ncnc(N)c23)c(F)c1F.O=S(=O)(O)O      AUC(0-t)            21500

Qu. Write down AUC(0-t) measured for item COc1ccc(-c2nn([C@@H](C)c3nc4cccc(Cl)c4c(=O)n3-c3ccccc3)c3ncnc(N)c23)c(F)c1F
Ans. 5780

----------
molecular target: CK1ε (Homo sapiens, UniProt P49674); assay: CK1ε kinase activity assay (Caliper, FAM-labelled polypeptide); type: biochemical
Each entry below carries its recorded IC50.
Report the value in nM with no unit label.

Sample answers from the record:
molecule	target	IC50 (nM)
CC(C)Oc1ccc(-c2nn(C(C)c3nc4ccccc4c(=O)n3-c3ccccc3)c3ncnc(N)c23)c(F)c1F (stereo not drawn)	CK1ε (Homo sapiens, UniProt P49674)	145
COc1ccc(-c2nn([C@@H](C)c3nc4cccc(F)c4c(=O)n3-c3ccccc3)c3ncnc(N)c23)c(F)c1F	CK1ε (Homo sapiens, UniProt P49674)	60
COc1ccc(-c2nn(C(C)c3nc4cccc(Cl)c4c(=O)n3-c3cncc(F)c3)c3ncnc(N)c23)c(F)c1F (stereo not drawn)	CK1ε (Homo sapiens, UniProt P49674)	89

Qu. // output IC50; input COc1ccc(-c2nn([C@@H](C)c3nc4ccccc4c(=O)n3-c3ccccc3)c3ncnc(N)c23)c(F)c1F ; system CK1ε (Homo sapiens, UniProt P49674)
Ans. 108

Qu. // output IC50; input CC(C)Oc1ccc(-c2nn([C@H](C)c3nc4ccccc4c(=O)n3-c3ccccc3)c3ncnc(N)c23)c(F)c1F ; system CK1ε (Homo sapiens, UniProt P49674)
Ans. 450

Qu. // output IC50; input CC(C)Oc1ccc(-c2nn(C(C)c3nc4cccc(F)c4c(=O)n3-c3ccccc3)c3ncnc(N)c23)cc1F (stereo not drawn) [Compound D, reference compound] ; system CK1ε (Homo sapiens, UniProt P49674)
Ans. 1290

Qu. // output IC50; input CC(C)Oc1ccc(-c2nn(C(C)c3nc4cccc(F)c4c(=O)n3-c3ccccc3)c3ncnc(N)c23)c(F)c1F (stereo not drawn) ; system CK1ε (Homo sapiens, UniProt P49674)
Ans. 100

Qu. // output IC50; input COc1ccc(-c2nn(C(C)c3nc4cccc(Cl)c4c(=O)n3-c3ccccc3)c3ncnc(N)c23)c(F)c1F (stereo not drawn) ; system CK1ε (Homo sapiens, UniProt P49674)
Ans. 97

Qu. // output IC50; input COc1ccc(-c2nn([C@@H](C)c3nc4cccc(Cl)c4c(=O)n3-c3ccccc3)c3ncnc(N)c23)c(F)c1F ; system CK1ε (Homo sapiens, UniProt P49674)
Ans. 45

Qu. // output IC50; input CC(c1nc2ccccc2c(=O)n1-c1ccccc1)n1nc(-c2ccc(OC3CC3)c(F)c2F)c2c(N)ncnc21 (stereo not drawn) ; system CK1ε (Homo sapiens, UniProt P49674)
Ans. 234

Qu. // output IC50; input COc1ccc(-c2nn(C(C)c3nc4cccc(F)c4c(=O)n3-c3ccccc3)c3ncnc(N)c23)c(F)c1F (stereo not drawn) ; system CK1ε (Homo sapiens, UniProt P49674)
Ans. 118

Qu. // output IC50; input COc1ccc(-c2nn(C(C)c3nc4ccc(F)cc4c(=O)n3-c3ccccc3)c3ncnc(N)c23)c(F)c1F (stereo not drawn) ; system CK1ε (Homo sapiens, UniProt P49674)
Ans. 100
